- Tested on: DU-145 prostate
- procedure_details: NCI-60 one-dose screen, 48 h (100 = growth as untreated, 0 = no growth, -100 = all killed)
- reported_conditions: 10 µM
Compounds without any hit were thinned out: in the full panel of roughly 83,000, 20% have a hit. Calls of active or inactive are those of the source. The calls were made as follows: active = growth percent below 10; inactive = the rest.
Can you tell me growth for the items I'm about to list?

(Q) Find the measured growth of `Cc1cc(Nc2cccc(F)c2)nc(NCc2ccccc2)n1` and report it.
(A) 22.8% (inactive)

(Q) Read the entry `O=C1CC[C@@H](C(=O)N[C@H]2CSSC[C@@H](C(=O)N/C=C/c3ccc(O)cc3)NC(=O)[C@H](Cc3ccccc3)NC(=O)[C@@H]3CCCN3C(=O)[C@@H]3CCCN3C2=O)N1` and write its reported growth.
(A) 106% (inactive)

(Q) Supply reported growth belonging to this compound: CCCCOCC(=O)NC(NP(=O)(N(C)C)N(C)C)C(Cl)(Cl)Cl (stereo not given)
(A) 139% (inactive)

(Q) Please look at this compound and report its growth: `NCCNc1ccc2cc(-c3nc4ccccc4[nH]3)c(=O)oc2c1`
(A) 103% (inactive)

(Q) Note growth for the compound shown: `COc1ccc(-c2nnc(SC/C(=N\O)c3ccccc3)o2)cc1`
(A) 100% (inactive)

* * *

- Test system: BT-549 breast
- procedure_details: NCI-60 one-dose screen, 48 h (100 = growth as untreated, 0 = no growth, -100 = all killed)
- reported_conditions: 10 µM
Compounds without any hit were thinned out: in the full panel of roughly 83,000, 20% have a hit.
assay_readout: growth (%)
Reply with just the number (in %).

(Q) Consider the molecule `C/C(=N\NC(=O)c1sc(=S)n(C)c1N)c1cc2ccccc2o1` . State its measured growth.
(A) 87.2

(Q) Query growth for `Cc1cc(C)c2c(Nc3ncnc4c3sc3nc(C)cc(C)c34)n[nH]c2n1`
(A) 101

(Q) Look up and state reported growth for `CCOC(=O)CSC(=S)SCC(=O)OCC`
(A) 106

(Q) Please report growth for the following molecule: `C=C[C@]1(C)C=C2C(=O)[C@@]3(O)OC(=O)[C@@]4(CCCC(C)(C)[C@H]34)[C@@]2(O)CC1`
(A) -93.7

(Q) Supply measured growth of `Oc1ccccc1-c1nnc(Cn2c(Cc3cccc4ccccc34)nc3ccccc32)o1` in your reply.
(A) 101

* * *

- Tested on: LOX IMVI melanoma
- procedure_details: NCI-60 one-dose screen, 48 h (100 = growth as untreated, 0 = no growth, -100 = all killed)
- reported_conditions: 10 µM
Compounds without any hit were thinned out: in the full panel of roughly 83,000, 20% have a hit.
assay_readout: growth (%)
Give the value in % but do not write % after it.

(Q) Hello, please tell me recorded growth for this one: `COc1ccc(-c2nc(-c3ccccc3)c(-c3ccccc3)[nH]2)cc1OC1CCCC1`
(A) 24.3

(Q) Give the reported growth for this compound. `CCOC(=O)c1sc(NC(=O)c2cc(OC)c(OC)c(OC)c2)nc1C`
(A) 97.3

(Q) Indicate the recorded growth value for this compound: `CN(C)CCCN(Cc1ccccc1O)C(=S)Nc1ccc(Cl)cc1`
(A) 98.4

(Q) Indicate its recorded growth; the compound in question is `Fc1cc(-c2ncc(-c3cc(F)c(F)c(F)c3)c(NC3CCCCCC3)n2)cc(F)c1F`
(A) 102

(Q) Please give the documented growth of `COc1cc(OC)cc(-c2n/c(=C\c3c(O)[nH]c4ccc(OC)cc34)cc3c2=Nc2ccccc2-3)c1`
(A) 30.4

(Q) Note growth for the compound shown: `Nc1cc(O)cc(O)c1`
(A) 95

(Q) Report growth for `CC(C)C[C@H](NC(=O)Cn1ccc(Nc2ccccc2)cc1=O)B(O)O`
(A) 3.14

(Q) Recall and state the measured growth for `c1ccc(C2CCCCC2)c(OCCCCCN2CCNCC2)c1` .
(A) -35

(Q) Name the recorded growth of the compound listed here: `N=C(N)c1ccc(-c2ccc(-c3ccccc3)s2)s1`
(A) -69.2

(Q) # return recorded growth for input `CCCCCCCCCCCCCCCC(=O)N1CCN(C)CC1`
(A) -38.1

(Q) Please give measured growth of the following entry: `CCOC(=O)Nc1ccc2c(c1)C(=O)N(CC)c1ccccc1O2`
(A) 15.1

(Q) Provide growth value for the following compound: CC1=CSC2=NC(c3ccc(Cl)c(Cl)c3)=CC(c3ccc(Cl)cc3)N12 (centres undefined)
(A) -82.4

(Q) Supply measured growth of `O=C1/C(=C/c2ccc(O)cc2O)N=C2SCCCN12` in your reply.
(A) 102

(Q) Read off the recorded growth for `O=C1/C(=C/c2ccc(O)cc2)Oc2ccc(Cl)cc21`
(A) 82.3

* * *

- Test system: SNB-19 CNS
- procedure_details: NCI-60 one-dose screen, 48 h (100 = growth as untreated, 0 = no growth, -100 = all killed)
- reported_conditions: 10 µM
The panel holds about 83,000 compounds, 20% with a hit somewhere; the sample as a whole holds those more often.
assay_readout: growth (%)
All answers are understood in %, so give the number only.

(Q) Tell me growth reported for `Cn1c(N)c(N=Cc2ccccc2)c(=O)n(C)c1=O`
(A) 105

(Q) Recall and state the measured growth for `Nc1cc2c(cc1Cl)-c1ccc(Cl)cc1C2=O` .
(A) 98.7

(Q) // fetch growth given entry `Clc1ccc(-c2nc(-c3cccs3)cn3ccnc23)cc1`
(A) 88.6

(Q) State its growth for this compound: `C=CCOc1ccc2c(c1)CC[C@@H]1[C@@H]2CC[C@]2(C)C(=O)/C(=N/O)C[C@@H]12`
(A) 69.5

(Q) Consider the compound COc1cccc2c1C(=O)c1c(O)c3c(c(O)c1C2=O)C[C@@](O)(C(=O)COC(=O)c1cccnc1)C[C@@H]3OC1CC(N)C(O)C(C)O1 (stereo partly drawn) and give its recorded growth.
(A) 5.16

(Q) Give a short answer stating reported growth for `CC(=O)OCC(COC(C)=O)(COC(C)=O)COC(C)=O` .
(A) 104

(Q) Using known records, supply growth for `c1ccc(OCCC[P+](c2ccccc2)(c2ccccc2)c2ccccc2)cc1`
(A) 12.7

(Q) Indicate the recorded growth value for this compound: `Cc1ccc(-n2nnc3c(sc4ccccc43)c2=O)cc1`
(A) 44.2

(Q) Hello, please tell me recorded growth for this one: `O=C(OCc1ncc(-c2ccc(C(F)(F)F)cc2)c(NC2CCCCCC2)n1)c1c(F)c(F)c(F)c(F)c1F`
(A) 73.8

(Q) Return growth (reported value) for this compound: `COc1ccc(-n2nnc3c(sc4ccccc43)c2=O)cc1`
(A) 33.7

(Q) Complete the entry with growth for CC(=O)Nc1ccc2c(c1)C(N1CC3CCC(CC3)C1)c1ccccc1-2 (stereo not drawn)
(A) 107

(Q) Provide measured growth value, entry: `CCNC1(NC#N)CCCCC1`
(A) 110

(Q) Look up growth of `Oc1ccc(/C=N\Nc2ccccn2)c(O)c1` and report it.
(A) 29.4

(Q) Supply recorded growth for `c1ccc(COCC[P+](c2ccccc2)(c2ccccc2)c2ccccc2)cc1` here.
(A) 9.79

(Q) Complete the entry with growth for `CCCCCCOc1ccc(/C=C/C(=O)c2ccc(B(O)O)cc2)cc1`
(A) 104

(Q) Query growth for `O=C(COc1ccc(Cl)cc1Cl)Oc1coc(CSc2nc3ccccc3s2)cc1=O`
(A) 103

(Q) Identify measured growth associated with `CCCCCCCCCCCCCCCCn1cc[n+](C)c1`
(A) -75.9

(Q) Report measured growth; entry is `Cc1nn2c(/C=C3/C(=O)Nc4ccc(Cl)cc43)c(-c3ccccc3)nc2s1`
(A) 82.4

* * *

What growth was measured for each of the following?
- Tested on: COLO 205 colon
- procedure_details: NCI-60 one-dose screen, 48 h (100 = growth as untreated, 0 = no growth, -100 = all killed)
- reported_conditions: 10 µM
The panel holds about 83,000 compounds, 20% with a hit somewhere; the sample as a whole holds those more often.
Number in %, nothing else.

(Q) Output measured growth for this item: `COc1cc(NS(C)(=O)=O)ccc1Nc1c2ccc(Cl)cc2nc2c(OC)cccc12`
(A) 34.3

(Q) Tell me measured growth for `COc1cc(-c2c(C#N)c(N)n3c(nc4ccccc43)c2C#N)cc(Br)c1OC` please.
(A) 55.1

(Q) Fill in growth for record `O=C(Nc1ccc(CN2CCOCC2)cc1)c1ccc(-c2cc(Cl)ccc2Cl)o1`
(A) -82.1

* * *

- Tested on: SF-539 CNS
- procedure_details: NCI-60 one-dose screen, 48 h (100 = growth as untreated, 0 = no growth, -100 = all killed)
- reported_conditions: 10 µM
This is part of a sample that, as a whole, favours compounds with a hit. Of some 83,000 tested, about 20% had one in any assay. Calls of active or inactive are those of the source. The calls were made as follows: active = growth percent below 10; inactive = the rest.
For each of the compounds below, state its growth.

(Q) Quickly give me recorded growth for `Cc1ccc(-n2nnc3c(sc4ccccc43)c2=O)cc1`
(A) 57.2% (inactive)

(Q) Look up growth of `COc1cccc(C(=O)NNc2nc(N3CCOCC3)nc(N3CCN(C(c4ccccc4)c4ccccc4)CC3)n2)c1` and report it.
(A) 93.6% (inactive)

(Q) Item `COc1ccc(-c2nc(-c3nc4ccc(C)cc4[nH]3)c3ccccn23)cc1` : provide growth
(A) 82.4% (inactive)
